Test system: RXRa homodimer (NR concentration 180 nM)
test details: PBM binding z-score (relative to random genomic background probes); higher = stronger binding; sequences stand for … in GC…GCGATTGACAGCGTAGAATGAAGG
Overview of reported PBM binding z-score across a group of sequences:
No unit in the answer, please; the number alone is enough.

sequence_chain=ATCTCTAGGTGAGACTCAGTTCAGTGAAGAACGC endpoint_result=0.00106
sequence_chain=GCAGACAGGTGAAACGCAGCTAACTCAGGGTGGC endpoint_result=-0.0388
sequence_chain=GTACCAGGGTGAATAGGTCGTTGATGAGTAGGCG endpoint_result=2
sequence_chain=CGAACTAGGTCATTAACAGGACAGTGAATAGTAA endpoint_result=2.29
sequence_chain=CGTCCAAGGTCCGAGAGGTCAGTGAATGCCGAGT endpoint_result=2.4

Lab note: next sequence to report on.
# input Determine its reported PBM binding z-score: TCCATTAGTTGATTAGGGCAACCGAAACAGCGGA
# output 0.491

====

PBM binding z-score by entry:
Test system: THRa:RXRa (NR concentration 90 nM, RXRa partner concentration 90 nM)
test details: PBM binding z-score (relative to random genomic background probes); higher = stronger binding; sequences stand for … in GC…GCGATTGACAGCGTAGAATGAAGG
Please respond with just the number, no unit label.

Answered cases to consult:
sequence_chain=TGAATGAGGGTAAAGATCAGGGAACGTGGCGTCG property_label="PBM binding z-score" endpoint_result=0.432
sequence_chain=CCTAGCAGGCCAGGGTCACTCACGCATTTCGCTT property_label="PBM binding z-score" endpoint_result=2.63
sequence_chain=CGAACGAGGGCATGAGTTAATAGCAAATGCCGAT property_label="PBM binding z-score" endpoint_result=1.13

# input Recall and state the measured PBM binding z-score for AGAATGAGGTTAAAATCAGGGAAACAGAATACAT .
# output 2.4

# input Consider the sequence GCAGACAGGTGAAACGAAGGTAACTCAGGGTGGC and give its recorded PBM binding z-score.
# output 1.42

====

Test system: RXRa homodimer (NR concentration 180 nM)
test details: PBM binding z-score (relative to random genomic background probes); higher = stronger binding; sequences stand for … in GC…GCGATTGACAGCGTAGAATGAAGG
Returns one of yes (1) or no (0); yes (1) when PBM binding z-score is >= 2.

A selection of reference data follows.
sequence_chain=TCATATAGGTGAAGGTGAAAGTCGAACGATATGA label_value="no (0)"
sequence_chain=ACAACGAGGGCACGCTGAGTTGATAGCAGAGTAG label_value="no (0)"
sequence_chain=AGAATGAGGTTAAGATCAAGGAAACAGAATACAT label_value="yes (1)"
sequence_chain=GGAACGAGGGCAAAGTTGTTAGCATCTGTCGACG label_value="no (0)"
sequence_chain=GCAGGCAGGTGAAACGCAGGTAACTCAGGGTGGC label_value="no (0)"

# input Is it the case that CAAACTAGGTCACGACAGGTCAAAGTCGAATGAC has PBM binding z-score reaching or exceeding 2?
# output yes (1)

# input Kindly determine if PBM binding z-score recorded for GCTGCTAGGTCAACTGCTGGTCAGCTAAAGCTCG is above or exactly 2.
# output yes (1)

# input Threshold query (PBM binding z-score >= 2) on CAAACTAGGTCCAGAGGTCAAAGTCCGCTTCCCG
# output yes (1)
